Tested on: Candida albicans
assay-text: Antifungal activity against Candida albicans ATCC 10231 at 100 ug/ml by cup-plate method
Assay type: functional
condition-context: read-out: IZ
observation-type: zone of inhibition at 100 µg/mL (mm)
One number for each entry, in mm.

Here are 4 compounds. What values of zone of inhibition at 100 µg/mL were reported for them?
1. O=c1c2cc(Br)ccc2nc(Cc2ccccc2Nc2c(Cl)cccc2Cl)n1-c1ccc(/N=C/c2ccccc2Cl)cc1
2. COc1ccc(C2C(Cl)C(=O)N2c2ccc(-n3c(Cc4ccccc4Nc4c(Cl)cccc4Cl)nc4ccc(Br)cc4c3=O)cc2)c(O)c1 (stereo not drawn)
3. O=c1c2cc(Br)ccc2nc(Cc2ccccc2Nc2c(Cl)cccc2Cl)n1-c1ccc(/N=C/c2ccccc2[N+](=O)[O-])cc1
4. O=c1c2cc(Br)ccc2nc(Cc2ccccc2Nc2c(Cl)cccc2Cl)n1-c1ccc(/N=C/c2ccc(O)cc2)cc1

Data returned:
1: 2; 2: 1; 3: 2; 4: 1

----------
Test system: Staphylococcus aureus
assay-text: Antibacterial activity against Staphylococcus aureus ATCC 9144 at 50 to 100 ug/ml by cup-plate method
Assay type: functional
So I've got a bunch of compounds here, and I need their Activity values.
Give bare numbers, in %.

• O=C1C(Cl)C(c2ccccc2O)N1c1ccc(-n2c(Cc3ccccc3Nc3c(Cl)cccc3Cl)nc3ccc(Br)cc3c2=O)cc1 (stereo not drawn) = 50.98

Here are 2 compounds. What values of Activity were reported for them?
1. CN(C)c1ccc(/C=N/c2ccc(-n3c(Cc4ccccc4Nc4c(Cl)cccc4Cl)nc4ccc(Br)cc4c3=O)cc2)cc1
2. O=c1c2cc(Br)ccc2nc(Cc2ccccc2Nc2c(Cl)cccc2Cl)n1-c1ccc(/N=C/c2ccccc2[N+](=O)[O-])cc1

Data returned:
0
28.43

----------
System: Escherichia coli
assay-text: Antibacterial activity against Escherichia coli ATCC 25922 at 100 ug/ml by cup-plate method
Assay type: functional
condition-context: read-out: IZ
observation-type: zone of inhibition at 100 µg/mL (mm)
Answers are plain numbers, in mm.

• O=c1c2cc(Br)ccc2nc(Cc2ccccc2Nc2c(Cl)cccc2Cl)n1-c1ccc(/N=C/c2ccc(O)cc2)cc1 = 4

Here are 6 molecules. What values of zone of inhibition at 100 µg/mL were reported for them?
1. COc1ccc(C2C(Cl)C(=O)N2c2ccc(-n3c(Cc4ccccc4Nc4c(Cl)cccc4Cl)nc4ccc(Br)cc4c3=O)cc2)c(O)c1 (stereo not drawn)
2. O=C1C(Cl)C(c2ccc(Cl)cc2)N1c1ccc(-n2c(Cc3ccccc3Nc3c(Cl)cccc3Cl)nc3ccc(Br)cc3c2=O)cc1 (stereo not drawn)
3. O=C1C(Cl)C(c2cccc([N+](=O)[O-])c2)N1c1ccc(-n2c(Cc3ccccc3Nc3c(Cl)cccc3Cl)nc3ccc(Br)cc3c2=O)cc1 (stereo not drawn)
4. O=c1c2cc(Br)ccc2nc(Cc2ccccc2Nc2c(Cl)cccc2Cl)n1-c1ccc(/N=C/c2ccc(Cl)cc2)cc1
5. COc1cc(C2C(Cl)C(=O)N2c2ccc(-n3c(Cc4ccccc4Nc4c(Cl)cccc4Cl)nc4ccc(Br)cc4c3=O)cc2)cc(OC)c1OC (stereo not drawn)
6. O=c1c2cc(Br)ccc2nc(Cc2ccccc2Nc2c(Cl)cccc2Cl)n1-c1ccc(/N=C/c2ccccc2[N+](=O)[O-])cc1

Data returned:
1: 7; 2: 7; 3: 4; 4: 7; 5: 7; 6: 4

Given item COc1cc(/C=N/c2ccc(-n3c(Cc4ccccc4Nc4c(Cl)cccc4Cl)nc4ccc(Br)cc4c3=O)cc2)cc(OC)c1OC , the value recorded as its zone of inhibition at 100 µg/mL is 7

----------
So I've got a bunch of compounds here, and I need their zone of inhibition at 100 µg/mL values.
System: Candida albicans
assay-text: Antifungal activity against Candida albicans ATCC 10231 at 100 ug/ml by cup-plate method
Assay type: functional
condition-context: read-out: IZ
Give bare numbers, in mm.

Completed entries (count: 3):
- O=c1c2cc(Br)ccc2nc(Cc2ccccc2Nc2c(Cl)cccc2Cl)n1-c1ccc(/N=C/c2ccc(Cl)cc2)cc1: 4
- CCN(CC)c1ccc(/C=N/c2ccc(-n3c(Cc4ccccc4Nc4c(Cl)cccc4Cl)nc4ccc(Br)cc4c3=O)cc2)c(O)c1: 0
- CCN(CC)c1ccc(C2C(Cl)C(=O)N2c2ccc(-n3c(Cc4ccccc4Nc4c(Cl)cccc4Cl)nc4ccc(Br)cc4c3=O)cc2)c(O)c1 (centres undefined): 0

Here are 3 compounds. What values of zone of inhibition at 100 µg/mL were reported for them?
1. COc1ccc(C2C(Cl)C(=O)N2c2ccc(-n3c(Cc4ccccc4Nc4c(Cl)cccc4Cl)nc4ccc(Br)cc4c3=O)cc2)cc1 (centres undefined)
2. O=C1C(Cl)C(c2ccc(O)cc2)N1c1ccc(-n2c(Cc3ccccc3Nc3c(Cl)cccc3Cl)nc3ccc(Br)cc3c2=O)cc1 (centres undefined)
3. O=C1C(Cl)C(c2cccc([N+](=O)[O-])c2)N1c1ccc(-n2c(Cc3ccccc3Nc3c(Cl)cccc3Cl)nc3ccc(Br)cc3c2=O)cc1 (centres undefined)

Data returned:
[4, 0, 2]

Here are 3 compounds. What values of zone of inhibition at 100 µg/mL were reported for them?
1. O=c1c2cc(Br)ccc2nc(Cc2ccccc2Nc2c(Cl)cccc2Cl)n1-c1ccc(/N=C/c2cccc([N+](=O)[O-])c2)cc1
2. COc1cc(C2C(Cl)C(=O)N2c2ccc(-n3c(Cc4ccccc4Nc4c(Cl)cccc4Cl)nc4ccc(Br)cc4c3=O)cc2)cc(OC)c1OC (centres undefined)
3. C[C@@H]1[C@H](O)[C@@H](C)/C=C/C=C/C=C/C=C/C=C/C=C/C=C/[C@H](O[C@@H]2O[C@H](C)[C@@H](O)[C@H](N)[C@@H]2O)C[C@@H]2O[C@](O)(C[C@@H](O)C[C@@H](O)[C@H](O)CC[C@@H](O)C[C@@H](O)CC(=O)O[C@H]1C)C[C@H](O)[C@H]2C(=O)O

Data returned:
1: 2; 2: 2; 3: 9
